Every entry's value here was drawn from patent US20060189528A1.

Measurement Target: T1, TRAIL (human, UniProt P50591 114-281)
T1 construct: also called TNF-related apoptosis inducing ligand; recombinant human TRAIL (R&D Systems)
T1 sequence (P50591 114-281 limits assumed): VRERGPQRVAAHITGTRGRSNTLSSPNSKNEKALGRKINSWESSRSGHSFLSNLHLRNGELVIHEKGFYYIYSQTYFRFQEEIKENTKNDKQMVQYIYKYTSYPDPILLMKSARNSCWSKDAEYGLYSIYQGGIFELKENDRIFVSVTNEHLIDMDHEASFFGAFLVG
Procedure Summary: ELISA on coated TRAIL, Fc-linked dimers; EC50 ratio to OPG(22-194).Fc wt; reduction in binding (higher EC50)
TRAIL fold change cf wt values, listed per item
Measurement Kind: TRAIL fold change cf wt (fold)

1) OVP I115S (Fc fusion, Tested as C-terminal Fc-linked dimer with FLAG tag, from HEK 293 EBNA cells; signal peptide 1-21 processed; not shown: human Fc domain of vector pAPEX-3.Fc; C-terminal FLAG tag) ETFPPKYLHYDEETSHQLLCDKCPPGTYLKQHCTAKWKTVCAPCPDHYYTDSWHTSDECLYCSPVCKELQYVKQECNRTHNRVCECKEGRYLESEFCLKHRSCPPGFGVVQAGTPERNTVCKRCPDGFFSNETSSKAPCRKHTNCSVFGLLLTQKGNATHDNICSGNSESTQK = 3.1
2) OVP I115M, F128S (Fc fusion, Tested as C-terminal Fc-linked dimer with FLAG tag, from HEK 293 EBNA cells; signal peptide 1-21 processed; also called I115M plus: F128S; not shown: human Fc domain of vector pAPEX-3.Fc; C-terminal FLAG tag) ETFPPKYLHYDEETSHQLLCDKCPPGTYLKQHCTAKWKTVCAPCPDHYYTDSWHTSDECLYCSPVCKELQYVKQECNRTHNRVCECKEGRYLEMEFCLKHRSCPPGSGVVQAGTPERNTVCKRCPDGFFSNETSSKAPCRKHTNCSVFGLLLTQKGNATHDNICSGNSESTQK = 50
3) OVP I115M, R122S (Fc fusion, Tested as C-terminal Fc-linked dimer with FLAG tag, from HEK 293 EBNA cells; signal peptide 1-21 processed; also called I115M plus: R122S; not shown: human Fc domain of vector pAPEX-3.Fc; C-terminal FLAG tag) ETFPPKYLHYDEETSHQLLCDKCPPGTYLKQHCTAKWKTVCAPCPDHYYTDSWHTSDECLYCSPVCKELQYVKQECNRTHNRVCECKEGRYLEMEFCLKHSSCPPGFGVVQAGTPERNTVCKRCPDGFFSNETSSKAPCRKHTNCSVFGLLLTQKGNATHDNICSGNSESTQK = 3.5
4) OVP I115A (Fc fusion, Tested as C-terminal Fc-linked dimer with FLAG tag, from HEK 293 EBNA cells; signal peptide 1-21 processed; not shown: human Fc domain of vector pAPEX-3.Fc; C-terminal FLAG tag) ETFPPKYLHYDEETSHQLLCDKCPPGTYLKQHCTAKWKTVCAPCPDHYYTDSWHTSDECLYCSPVCKELQYVKQECNRTHNRVCECKEGRYLEAEFCLKHRSCPPGFGVVQAGTPERNTVCKRCPDGFFSNETSSKAPCRKHTNCSVFGLLLTQKGNATHDNICSGNSESTQK = 2.5
5) OVP I115M, N139D (Fc fusion, Tested as C-terminal Fc-linked dimer with FLAG tag, from HEK 293 EBNA cells; signal peptide 1-21 processed; not shown: human Fc domain of vector pAPEX-3.Fc; C-terminal FLAG tag) ETFPPKYLHYDEETSHQLLCDKCPPGTYLKQHCTAKWKTVCAPCPDHYYTDSWHTSDECLYCSPVCKELQYVKQECNRTHNRVCECKEGRYLEMEFCLKHRSCPPGFGVVQAGTPERDTVCKRCPDGFFSNETSSKAPCRKHTNCSVFGLLLTQKGNATHDNICSGNSESTQK = 60
